Target: human JAK2 (Homo sapiens (Human))
Sequence (O60674 815-1132): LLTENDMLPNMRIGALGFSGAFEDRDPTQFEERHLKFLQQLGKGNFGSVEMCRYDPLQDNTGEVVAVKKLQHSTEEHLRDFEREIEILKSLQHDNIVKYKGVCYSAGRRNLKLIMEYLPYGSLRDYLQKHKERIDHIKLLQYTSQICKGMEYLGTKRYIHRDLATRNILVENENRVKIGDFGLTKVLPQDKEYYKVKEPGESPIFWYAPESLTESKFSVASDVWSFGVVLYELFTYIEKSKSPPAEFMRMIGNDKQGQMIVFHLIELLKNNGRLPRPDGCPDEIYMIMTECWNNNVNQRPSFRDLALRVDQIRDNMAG
Details: read-out: JAK2 IC50
Task for the reader: assign each of the following compounds its reported IC50.
Report only the number, with the unit nM understood.

Give recorded IC50 with human JAK2 (Homo sapiens (Human)) for the following compound: CN1CCN(C2CCN(c3cccc(Nc4nc5c(-c6ccc(S(C)(=O)=O)cc6)cccn5n4)c3)CC2)CC1
1.5

Could you share what IC50 was measured for CCOc1ccccc1-c1cccn2nc(Nc3ccc4c(c3)CCN(CCS(C)(=O)=O)CC4)nc12 , tested on human JAK2 (Homo sapiens (Human))?
70

So what IC50 did CN1CCN(c2cccc(Nc3nc4c(NCc5cccc(S(C)(=O)=O)c5)cccn4n3)c2)CC1 get with human JAK2 (Homo sapiens (Human))?
399

Give the reported IC50 for COCc1ccccc1-c1cccc2nc(Nc3ccc4c(c3)CCN(C(=O)OC(C)(C)C)CC4)nn12 (system: human JAK2 (Homo sapiens (Human))).
650

Query IC50 on human JAK2 (Homo sapiens (Human)) for CCOc1ccccc1-c1cccn2nc(Nc3ccc4c(c3)CCN(CC(=O)N(C)C)CC4)nc12
212

Fill in the recorded IC50 for this compound, with human JAK2 (Homo sapiens (Human)) as test system: CN1Cc2ccc(Nc3nc4c(NCc5ccccc5N(C)S(C)(=O)=O)cccn4n3)cc2C1
9.19

Notebook: pull reported IC50 for human JAK2 (Homo sapiens (Human)), entry CN1CCC(c2ccc(Nc3nc4c(Nc5ccccc5S(C)(=O)=O)cccn4n3)cc2)CC1
6.6

# returns recorded IC50 (system: human JAK2 (Homo sapiens (Human))) for CC(C)(C)OC(=O)N1CCC(c2ccc(Nc3nc4c(-c5cnn(-c6ccc(F)cc6)c5)cccn4n3)cc2)CC1
1110

Value wanted: IC50 (human JAK2 (Homo sapiens (Human))) of entry CN1CCN(c2cccc(Nc3nc4c(-c5ccc(N(C)S(C)(=O)=O)cc5)cccn4n3)c2)CC1
0.6

// lookup IC50 | system=human JAK2 (Homo sapiens (Human)) | key= CN1CCC(c2ccc(Nc3nc4c(Nc5ccccc5CN(C)S(C)(=O)=O)cccn4n3)cc2)CC1
111

// map Fc1ccc(-n2cc(-c3cccn4nc(Nc5ccc(C6CCNCC6)cc5)nc34)cn2)cc1 to recorded IC50 (system: human JAK2 (Homo sapiens (Human)))
2.12

Form: Entry = CN1CCN(C2CCN(c3ccc(Nc4nc5c(-c6ccc(S(C)(=O)=O)cc6)cccn5n4)cc3)CC2)CC1 | System = human JAK2 (Homo sapiens (Human)) | IC50 = ____
1.8

----------
Target: human FAK (Homo sapiens (Human), UniProt Q05397)
Sequence (Q05397 whole entry): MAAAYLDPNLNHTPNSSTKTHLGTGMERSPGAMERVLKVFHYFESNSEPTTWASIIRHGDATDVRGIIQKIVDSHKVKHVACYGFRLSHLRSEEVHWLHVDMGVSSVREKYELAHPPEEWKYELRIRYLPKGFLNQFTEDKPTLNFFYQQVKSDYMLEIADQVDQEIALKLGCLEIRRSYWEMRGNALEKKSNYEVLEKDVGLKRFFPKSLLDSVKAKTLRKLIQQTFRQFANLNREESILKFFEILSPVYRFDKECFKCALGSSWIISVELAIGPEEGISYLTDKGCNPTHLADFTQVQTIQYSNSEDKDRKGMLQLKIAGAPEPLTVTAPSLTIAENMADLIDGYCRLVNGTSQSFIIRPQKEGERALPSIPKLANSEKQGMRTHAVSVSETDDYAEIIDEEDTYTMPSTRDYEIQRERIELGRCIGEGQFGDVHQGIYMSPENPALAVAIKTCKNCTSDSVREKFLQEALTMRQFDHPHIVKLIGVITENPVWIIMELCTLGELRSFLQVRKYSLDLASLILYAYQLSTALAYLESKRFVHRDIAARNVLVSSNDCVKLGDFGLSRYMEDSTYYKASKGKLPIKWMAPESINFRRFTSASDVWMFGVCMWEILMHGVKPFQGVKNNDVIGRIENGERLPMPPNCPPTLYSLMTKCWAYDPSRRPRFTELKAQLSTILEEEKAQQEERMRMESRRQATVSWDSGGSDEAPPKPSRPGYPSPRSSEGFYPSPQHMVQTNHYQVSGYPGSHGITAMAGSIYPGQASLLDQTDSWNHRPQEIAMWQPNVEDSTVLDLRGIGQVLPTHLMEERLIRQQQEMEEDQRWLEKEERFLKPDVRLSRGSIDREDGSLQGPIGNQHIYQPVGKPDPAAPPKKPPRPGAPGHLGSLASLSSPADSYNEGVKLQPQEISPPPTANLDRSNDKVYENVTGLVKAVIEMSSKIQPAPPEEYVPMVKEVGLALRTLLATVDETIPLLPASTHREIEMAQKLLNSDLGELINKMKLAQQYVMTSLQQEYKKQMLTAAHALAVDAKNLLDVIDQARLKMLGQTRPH
Conditions: read-out: FAK IC50
Assign IC50 to each entry below.
# output: bare number, implied unit nM

Query (compound): CS(=O)(=O)c1ccc(OCC(F)F)c(-c2cccn3nc(Nc4ccc5c(c4)CCNCC5)nc23)c1 [Example 372] ; field requested: IC50
10000

What value of IC50 has been reported for the following compound? CC(C)(O)CN1CCN(c2cccc(Nc3nc4c(-c5ccc(S(C)(=O)=O)cc5)cccn4n3)c2)CC1 [Example 144]
2050

What does the record list as IC50 for CS(=O)(=O)CCN1CCc2ccc(Nc3nc4c(-c5cc(C(F)(F)F)ccc5Cl)cccn4n3)cc2CC1 [Example 268] ?
999

Data request, read-out IC50, for CN1CCN(c2ccc(Nc3nc4c(OCc5ccccc5N(C)S(C)(=O)=O)cccn4n3)cc2)CC1 [Example 195]
21.8

Which IC50 reading was recorded for the compound CC(C)(C)OC(=O)N1CCN(c2cccc(Nc3nc4c(-c5ccc(S(C)(=O)=O)cc5)cccn4n3)c2)CC1 [Example 179] ?
10000

Find the recorded IC50 belonging to COc1cccc(CNc2cccn3nc(Nc4cccnc4)nc23)c1 [Example 398] and report it.
10000

Value lookup for IC50; key = COc1cc(N2CCN(C)CC2)ccc1Nc1nc2c(NCc3cccnc3N(C)S(C)(=O)=O)cccn2n1 [Example 137]
39.7

Given the compound CN1CCN(c2ccc(Nc3nc4c(NCc5cccnc5N(C)S(C)(=O)=O)cccn4n3)cc2)CC1 [Example 122] , what is its reported IC50?
30
